Reference source for all entries: patent US3954733A

Listed here are compounds together with their documented MIC.
- System: Escherichia coli NIHJ
// return numeric value only (unit: µg/mL, not printed)

{"Structure": "CCOC(=O)Oc1ccc([C@@H](NC(=O)c2cnc3ccc(N(C)C)nc3c2O)C(=O)N[C@@H]2C(=O)N3[C@@H]2SC(C)(C)[C@@H]3C(=O)O)cc1Cl", "MIC, µg/mL": 3.13}
{"Structure": "CC1(C)S[C@@H]2[C@H](NC(=O)[C@H](NC(=O)c3cnc4cncnc4c3O)c3ccc(O)cc3)C(=O)N2[C@H]1C(=O)O", "MIC, µg/mL": 1.56}

Now let's try a different one.
State recorded MIC with Escherichia coli NIHJ, entry CCOC(=O)Oc1ccc([C@@H](NC(=O)c2cnc3c(OC)nc(OC)nc3c2O)C(=O)N[C@@H]2C(=O)N3[C@@H]2SC(C)(C)[C@@H]3C(=O)O)cc1 , no comment.
3.13
